Just for reference, the Deep4Chem optical property database is where these values come from.

PROTOCOL_DETAILS: solvent given as SMILES
EXPERIMENTAL_CONDITIONS: in CCOC(C)=O
Cut-off 400 nm on absorption maximum: below means satisfied, at or above means not satisfied.

Solved cases (4 shown):
SMILES_ENTRY	LABEL_CLASS
COc1ccc(C#Cc2c3ccccc3c3n2[B-](F)(F)[N+]2=C(C)C=C(C)C2=C3)cc1	not satisfied
CC1=[N+]2C(=C(c3cccs3)c3ccc(C)n3[B-]2(F)F)C=C1c1cc2n(c1)[B-](F)(F)[N+]1=CC=CC1=C2c1c(C)cc(C)cc1C	not satisfied
CN(C)c1ccc(-c2cc(-c3ccc(C#N)cc3)nn2C)cc1	satisfied
c1ccc(-c2nc(-c3ccc(-c4nc(-c5ccccc5)c(-c5ccccc5)[nH]4)s3)[nH]c2-c2ccccc2)cc1	satisfied

# check: absorption maximum < 400 nm for COc1nc(Nc2ccc3c4cccc5cccc(c6cccc2c63)c54)nc(OC)n1
not satisfied

# check: absorption maximum < 400 nm for CC1=C(Cc2ccccc2)C(C)=[N+]2C1=C(C)c1c(C)c(-c3csc(N4CCOCC4)n3)c(C)n1[B-]2(F)F
not satisfied

# check: absorption maximum < 400 nm for COc1cc2c(cc1C=C(C#N)C#N)c1ccccc1n2C
not satisfied
